- Study target: IKKε (Homo sapiens (Human), UniProt Q14164)
- Sequence (Q14164 whole entry): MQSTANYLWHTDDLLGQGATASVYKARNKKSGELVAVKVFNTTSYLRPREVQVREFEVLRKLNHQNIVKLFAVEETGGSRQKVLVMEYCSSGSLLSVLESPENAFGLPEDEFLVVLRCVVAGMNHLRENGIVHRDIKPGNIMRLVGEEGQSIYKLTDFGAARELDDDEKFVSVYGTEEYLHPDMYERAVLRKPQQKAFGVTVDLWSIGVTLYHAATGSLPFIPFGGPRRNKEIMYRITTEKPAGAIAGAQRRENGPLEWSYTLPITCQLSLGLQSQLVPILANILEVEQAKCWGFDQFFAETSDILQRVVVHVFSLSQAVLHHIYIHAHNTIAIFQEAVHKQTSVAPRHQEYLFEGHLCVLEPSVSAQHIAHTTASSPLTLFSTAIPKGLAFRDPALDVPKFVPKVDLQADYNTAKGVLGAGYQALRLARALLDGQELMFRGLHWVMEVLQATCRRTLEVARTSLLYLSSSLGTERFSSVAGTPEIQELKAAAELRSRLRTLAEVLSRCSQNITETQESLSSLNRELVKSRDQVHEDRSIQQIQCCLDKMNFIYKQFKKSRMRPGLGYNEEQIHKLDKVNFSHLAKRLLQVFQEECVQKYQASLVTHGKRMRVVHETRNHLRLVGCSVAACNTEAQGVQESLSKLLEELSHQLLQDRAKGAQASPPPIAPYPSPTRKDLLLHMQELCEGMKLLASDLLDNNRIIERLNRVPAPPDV
- Experiment: TR-FRET kinase assay, IKKε
- Conditions used: full length recombinant IKKε 0.3 nM, 2x Km ATP, 1 μM peptide, 240 min at 25° C.; geometric mean of minimum four determinations
Measured attribute: IC50 (nM)
All answers are understood in nM, so give the number only.

Examples with their reported IC50 follow.
chemical_smiles=N#Cc1cc(-c2ccnc3[nH]c(-c4cccc(CN5CCOCC5)c4)cc23)ccc1OC1CCOCC1 measured_attribute=IC50 uom=nM value_reported=10.7
chemical_smiles=N#Cc1cc(-c2ccnc3[nH]c(-c4ccc5c(c4)OCC(=O)N5)cc23)ccc1OC1CCOCC1 measured_attribute=IC50 uom=nM value_reported=10.5

Look at this molecule and give its reported IC50. N#Cc1cc(-c2ncnc3[nH]c(-c4ccc(N5CCOCC5)cc4)nc23)ccc1O[C@@H]1CCNC1
113

Look at this molecule and give its reported IC50. N#Cc1cc(-c2ccnc3[nH]c(C(=O)N4CCCC4)cc23)ccc1OC1CCOCC1
262

Look at this molecule and give its reported IC50. N#Cc1cc(-c2ncnc3[nH]c(-c4ccc(N5CCOCC5)nc4)nc23)ccc1OC1CCOCC1
1000

====

Entries and their pIC50 values follow.
- Study target: TBK1 (Homo sapiens (Human), UniProt Q9UHD2)
- Sequence (Q9UHD2 whole entry): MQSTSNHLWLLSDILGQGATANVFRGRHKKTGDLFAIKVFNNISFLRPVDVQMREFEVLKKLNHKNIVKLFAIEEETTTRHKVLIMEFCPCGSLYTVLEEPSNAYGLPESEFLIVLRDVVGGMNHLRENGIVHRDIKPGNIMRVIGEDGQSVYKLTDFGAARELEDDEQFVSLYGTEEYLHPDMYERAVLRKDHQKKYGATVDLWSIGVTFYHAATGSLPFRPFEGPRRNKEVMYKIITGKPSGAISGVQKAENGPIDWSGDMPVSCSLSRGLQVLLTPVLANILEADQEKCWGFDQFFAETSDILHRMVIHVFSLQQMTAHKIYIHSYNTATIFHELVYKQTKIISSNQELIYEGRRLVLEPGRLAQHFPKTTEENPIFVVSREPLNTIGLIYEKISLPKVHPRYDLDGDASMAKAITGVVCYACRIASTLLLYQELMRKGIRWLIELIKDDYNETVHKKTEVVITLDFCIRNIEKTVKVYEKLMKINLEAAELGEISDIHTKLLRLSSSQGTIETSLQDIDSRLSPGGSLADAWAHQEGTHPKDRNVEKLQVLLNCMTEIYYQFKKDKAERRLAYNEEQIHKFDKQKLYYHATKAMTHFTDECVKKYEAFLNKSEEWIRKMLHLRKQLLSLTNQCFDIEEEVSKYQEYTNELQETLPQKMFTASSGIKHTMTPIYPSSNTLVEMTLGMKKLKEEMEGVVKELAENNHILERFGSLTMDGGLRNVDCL
- Experiment: TR-FRET kinase assay, TBK1
- Conditions used: read-out: TBK1-IC50; full length recombinant TBK1 2.5 nM, 2x Km ATP, 1 μM peptide, 240 min at 25° C.; geometric mean of minimum four determinations
Please express pIC50 as -log10 of the molar concentration.

Examples with their reported pIC50 follow.
compound=CC1(COc2ccc(-c3ccnc4[nH]c(-c5ccc(N6CCOCC6)cc5)cc34)cc2C#N)COC1 measured_attribute=pIC50 value_reported=7.85
compound=C[C@H](O)C(=O)N1CCC(Oc2ccc(-c3ncnc4[nH]c(-c5ccc(N6CCOCC6)cc5)nc34)cc2C#N)CC1 measured_attribute=pIC50 value_reported=8.63
compound=N#Cc1cc(-c2ccnc3[nH]c(-c4cccc(N5CCOCC5)c4)nc23)ccc1OC1CCOCC1 measured_attribute=pIC50 value_reported=7.60
compound=CC(C)(C)OC(=O)N1CC=C(c2cc3c(-c4ccc(OC5CCOCC5)c(C#N)c4)ccnc3[nH]2)C1 measured_attribute=pIC50 value_reported=7.42
compound=N#Cc1cc(-c2ncnc3[nH]c(-c4ccc(OCCN5CCCC5)cc4)cc23)ccc1N1CC(O)C1 measured_attribute=pIC50 value_reported=7.37

Look at this compound and give its reported pIC50. Cn1cc(-c2nc3c(-c4ccc(OC5CCOCC5)c(C#N)c4)ccnc3[nH]2)cn1
7.35

Look at this compound and give its reported pIC50. N#Cc1cc(-c2ccnc3[nH]c(-c4ccc(N5CCN(C(=O)CO)CC5)cc4)cc23)ccc1OC1CCOCC1
8.69

Look at this compound and give its reported pIC50. CC(=O)N1CC(Oc2ccc(-c3ccnc4[nH]c(-c5ccc(N6CCOCC6)cc5)cc34)cc2C#N)C1
7.29

Look at this compound and give its reported pIC50. COc1ccc(C#N)cc1-c1ncnc2[nH]c(-c3ccc(N4CCOCC4)cc3)cc12
6.00

Look at this compound and give its reported pIC50. CN1CCN(C(=O)c2ccc(-c3cc4c(-c5ccc(OC6CCN(C(=O)CO)CC6)c(C#N)c5)ncnc4[nH]3)cc2)CC1
8.81

Look at this compound and give its reported pIC50. Cc1cc(N2CCOCC2)ccc1-c1cc2c(-c3ccc(OC4CCNCC4)c(C#N)c3)ncnc2[nH]1
7.65
